- test system: UniProt:P18405
- protocol: Whole cell assay of 5α-reductase, type 1 isoenzyme
- Format: cell-based
- Design: expressed in transfected cells; host or cells: rat 1A cells infected with pMV7 retrovirus
- study conditions: 100 μM; whole cell assay; Table 7

molecule: CCCCC=CCCCCCCCC(=O)OC1Cc2c(O)cc(O)cc2OC1c1cc(O)c(O)c(O)c1 (stereo not drawn)
test system: UniProt:P18405
scale unit: %
HRED1 % Inhibition @ 100 μM: 99
//
molecule: CCCCCC(=O)OC1Cc2c(O)cc(O)cc2OC1c1cc(O)c(O)c(O)c1 (stereo not drawn)
test system: UniProt:P18405
scale unit: %
HRED1 % Inhibition @ 100 μM: 10
//
molecule: COc1cc(C(=O)OC2Cc3c(O)cc(O)cc3OC2c2cc(O)c(O)c(O)c2)cc(OC)c1O (stereo not drawn)
test system: UniProt:P18405
scale unit: %
HRED1 % Inhibition @ 100 μM: 83
//
molecule: COc1cc(C(=O)OC2Cc3c(O)cc(O)cc3OC2c2cc(O)c(O)c(O)c2)cc(OC)c1OC (stereo not drawn)
test system: UniProt:P18405
scale unit: %
HRED1 % Inhibition @ 100 μM: 12
//
molecule: Cc1c(O)cc(C(=O)OC2Cc3c(O)cc(O)cc3OC2c2cc(O)c(O)c(O)c2)cc1O (stereo not drawn)
test system: UniProt:P18405
scale unit: %
HRED1 % Inhibition @ 100 μM: 40
//
molecule: CN(C)c1ccc(C(=O)OC2Cc3c(O)cc(O)cc3OC2c2cc(O)c(O)c(O)c2)cc1 (stereo not drawn)
test system: UniProt:P18405
scale unit: %
HRED1 % Inhibition @ 100 μM: 94

---

- test system: type 1 human 5α-reductase (HRED1) (Homo sapiens, UniProt P18405)
- Sequence (P18405 whole entry): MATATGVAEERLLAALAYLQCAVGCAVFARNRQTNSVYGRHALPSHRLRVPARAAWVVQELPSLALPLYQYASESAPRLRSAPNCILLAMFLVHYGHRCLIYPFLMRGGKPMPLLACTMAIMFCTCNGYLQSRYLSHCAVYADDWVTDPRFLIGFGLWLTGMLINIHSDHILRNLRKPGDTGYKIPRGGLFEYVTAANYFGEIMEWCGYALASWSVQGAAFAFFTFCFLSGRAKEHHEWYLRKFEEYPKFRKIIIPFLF
- protocol: Whole cell assay of 5α-reductase, type 1 isoenzyme;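 also: intact rat 1A cells engineered to express the human type 1 5α-reductase isozyme serve as the enzyme source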
- Format: cell-based
- Design: expressed in transfected cells; host or cells: rat 1A cells infected with pMV7 retrovirus
- study conditions: 100 μM; whole cell assay; Table 7
Note: every record was labeled by where its HRED1 % Inhibition @ 100 μM sits among bottom end = under 20%, midrange = from 20% up to 80%, top end = 80% and over

compound: O=C(OC1Cc2c(O)cc(O)cc2OC1c1cc(O)c(O)c(O)c1)C1CCCCC1 (centres unmarked)
discrete label: bottom end

compound: O=C1c2ccccc2C(=O)c2c1cc(S(=O)(=O)[O-])c(O)c2O.[Na+]
discrete label: midrange

compound: O=C(OC1Cc2c(O)cc(O)cc2OC1c1cc(O)c(O)c(O)c1)c1ccc2ccccc2c1 (centres unmarked)
discrete label: top end

compound: CCCCCCCCCCCCCCCCCC(=O)OC1Cc2c(O)cc(O)cc2OC1c1cc(O)c(O)c(O)c1 (centres unmarked)
discrete label: top end

compound: COc1ccc(-c2coc3cc(O)cc(O)c3c2=O)cc1
discrete label: midrange

compound: O=c1c(-c2ccc(O)cc2)coc2cc(O)ccc12
discrete label: bottom end

compound: CCCCC/C=C\C/C=C\C/C=C\CCCCC(=O)O[C@H]1CC[C@@]2(C)C(=CC[C@H]3[C@@H]4CC[C@H]([C@H](C)CCCC(C)C)[C@@]4(C)CC[C@@H]32)C1
discrete label: bottom end

compound: O=C(OC1Cc2c(O)cc(O)cc2OC1c1cc(O)c(O)c(O)c1)c1ccncc1 (centres unmarked)
discrete label: midrange

compound: CCCCCCCC(=O)OC1Cc2c(O)cc(O)cc2OC1c1cc(O)c(O)c(O)c1 (centres unmarked)
discrete label: top end

compound: CC(=O)OC1Cc2c(O)cc(O)cc2OC1c1cc(O)c(O)c(O)c1 (centres unmarked)
discrete label: bottom end

compound: Oc1cccc(O)c1O
discrete label: bottom end

compound: CC/C=C\C/C=C\C/C=C\CCCCCCCC(=O)OC
discrete label: midrange

compound: COc1cc(CCNC(=O)C=Cc2ccc(O)c(O)c2)ccc1O
discrete label: midrange

compound: CCCCCC=CCC=CCC=CCCCCC(=O)OC1Cc2c(O)cc(O)cc2OC1c1cc(O)c(O)c(O)c1 (centres unmarked)
discrete label: top end

compound: CCCCC/C=C\C/C=C\C/C=C\CCCCC(=O)OC
discrete label: midrange

compound: CCCCCCCCCCCCCC(=O)OC1Cc2c(O)cc(O)cc2OC1c1cc(O)c(O)c(O)c1 (centres unmarked)
discrete label: top end
